# Test system: NCI/ADR-RES
# Protocol Notes: NCI tumour cell line growth inhibition, 48 h
The source made the active and inactive calls. No stated cut-off is given here; in the data, active = GI50 up to about 1.1 µM and inactive = higher.
Reported GI50 is given for each of the following molecules.

Observe how each entry below is paired with its result.
Molecule	Target Under Test	GI50
CN(C)N1C(=O)CC2(CCN(CCCC(=O)c3ccc(F)cc3)CC2)C1=O	NCI/ADR-RES	> 100 µM (inactive)
CC(=O)Nc1ccc2c(c1)nc1c3ccccc3ccn21	NCI/ADR-RES	> 100 µM (inactive)

Qu. So what's the measured GI50 for this one? `Cc1cc(N(CCOS(C)(=O)=O)CCOS(C)(=O)=O)ccc1/C=N/c1ccc(-c2nc(Cc3ccccc3)sc2C)cc1`
Ans. 10.6 µM (inactive)

Qu. So what's the measured GI50 for this one? CCCCCCCCCCCC[C@@H](O)[C@H]1CCC([C@H](O)CCCCC(=O)CCCCCCCC2=C[C@H](C)OC2=O)O1 (stereo partly drawn)
Ans. 12.6 µM (inactive)

Qu. So what's the measured GI50 for this one? COC(=O)C(C(=O)C(=O)Nc1ccccc1C#N)c1nc2ccc([N+](=O)[O-])cc2nc1O (stereo not drawn)
Ans. 92.5 µM (inactive)

Qu. So what's the measured GI50 for this one? CC1Oc2c(c(=O)oc3ccccc23)[C@@]1(C)CC1C[C@H](C)C(=O)O1 (stereo partly drawn)
Ans. 32.7 µM (inactive)

Qu. So what's the measured GI50 for this one? Cn1c2ccccc2c(=O)c2cccc(C(=O)NC(CCCNC(=N)N)C(=O)O)c21 (stereo not drawn)
Ans. 26.1 µM (inactive)

Qu. So what's the measured GI50 for this one? CCCCCCCCCC[C@H](O)[C@H]1CC[C@@H]([C@@H](O)CC[C@H](O)[C@@H]2CCC(CCCCCCC[C@@H](O)CC3=C[C@H](C)OC3=O)O2)O1 (stereo partly drawn)
Ans. 1.34 µM (inactive)

Qu. So what's the measured GI50 for this one? CC1=COC(C)(C=C(C#N)C#N)CC1 (stereo not drawn)
Ans. 48.4 µM (inactive)

Qu. So what's the measured GI50 for this one? `Nc1ncc2c(n1)-c1ccccc1OC2`
Ans. > 100 µM (inactive)

Qu. So what's the measured GI50 for this one? `N#Cc1ccc(-c2nc3c(N)ncnc3o2)cc1`
Ans. > 100 µM (inactive)

Qu. So what's the measured GI50 for this one? `CN1c2ccccc2S(=O)(=O)n2c(COc3ccc(Cl)cc3)nnc21`
Ans. > 100 µM (inactive)

Qu. So what's the measured GI50 for this one? `Nc1c2c(nc3ccccc13)CCCCCC2`
Ans. 37.5 µM (inactive)

====

# Test system: SNB-75
# Protocol Notes: NCI tumour cell line growth inhibition, 48 h
Calls of active or inactive are those of the source. Rule as the data show it: active = GI50 up to about 1.1 µM and inactive = higher.
Reported GI50 is given for each of the following compounds.

Compound	Reported Endpoint	Result
CN(C)C(=O)Oc1ccc(-c2cn3cc(NC(=O)c4ccccc4)ccc3n2)cc1	GI50	86.1 µM (inactive)
Cc1cc(C)c(S(=O)(=O)N(CCCN)OCCON(CCCN)S(=O)(=O)c2c(C)cc(C)cc2C)c(C)c1	GI50	3.42 µM (inactive)
COC(=N)CCCl	GI50	83.2 µM (inactive)

Qu. So what's the measured GI50 for this one? `CN(C)/C=N/[C@@H](C(=O)O)c1ccccc1`
Ans. > 100 µM (inactive)

Qu. So what's the measured GI50 for this one? CCOC(=O)CCC(NC(=O)c1ccc(Oc2nc3ccccc3nc2C(=O)OCC)cc1)C(=O)OCC (stereo unspecified)
Ans. 21.5 µM (inactive)

Qu. So what's the measured GI50 for this one? `O=C(Cn1c2ccc(Br)cc2c2nc3ccccc3nc21)N/N=C/c1ccccc1`
Ans. 83.9 µM (inactive)
